Would you kindly list IC50 for each of these molecules?
- target.of.assay: wild type ALS protein (Oryza sativa subsp. japonica)
- Sequence (Q6K2E8 44-644): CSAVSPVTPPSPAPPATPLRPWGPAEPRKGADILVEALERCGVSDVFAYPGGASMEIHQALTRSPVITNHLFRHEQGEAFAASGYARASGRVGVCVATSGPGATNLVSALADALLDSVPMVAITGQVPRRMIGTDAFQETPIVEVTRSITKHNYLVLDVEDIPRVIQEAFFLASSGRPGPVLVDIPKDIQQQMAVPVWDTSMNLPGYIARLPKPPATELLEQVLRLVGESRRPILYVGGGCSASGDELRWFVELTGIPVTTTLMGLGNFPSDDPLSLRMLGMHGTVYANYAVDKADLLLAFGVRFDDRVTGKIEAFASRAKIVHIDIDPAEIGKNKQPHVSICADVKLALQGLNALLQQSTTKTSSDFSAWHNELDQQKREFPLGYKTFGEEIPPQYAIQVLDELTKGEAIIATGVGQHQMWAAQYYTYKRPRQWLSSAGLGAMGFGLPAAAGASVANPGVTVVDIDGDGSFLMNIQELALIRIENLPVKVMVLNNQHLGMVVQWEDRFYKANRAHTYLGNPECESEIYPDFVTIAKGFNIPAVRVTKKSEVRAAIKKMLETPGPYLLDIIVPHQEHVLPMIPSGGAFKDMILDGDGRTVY
Give bare numbers, in nM.

Exam item: Give the reported IC50 for this molecule. CC(C)C1(C)N=C(c2nc3ccccc3cc2C(=O)O)NC1=O (stereo not drawn) [Imazaquin, imazaquin]
Marked response: 1480

Exam item: Consider the molecule COc1nc(C)nc(NC(=O)NS(=O)(=O)c2ccccc2Cl)n1 [Chlorsulfuron, chlorsulfuron] . State its measured IC50.
Marked response: 17.3

Now examine the next entry.
Exam item: Quickly give me recorded IC50 for COc1cc(OC)nc(Oc2cccc(Oc3nc(OC)cc(OC)n3)c2C(=O)[O-])n1.[Na+] [Bispyribac-sodium, bispyribac-sodium]
Marked response: 5.63
